- Test system: HCI-019 (organoid from a triple-negative breast cancer xenograft)
- TEST_SUMMARY: CTG-3D luminescence at 96 h relative to day-0 seeding control (ratio to day 0); higher = more growth / less cytotoxicity; PDxO 3D drug screen, 96 h, CTG-3D normalised to day-0 seeding control.
- TEST_CONDITIONS: 1 µM; days in culture: 131

| CHEMICAL_STRING | CTG-3D luminescence at 96 h |
| --- | --- |
| CC(C)n1nc(-c2ccc3oc(N)nc3c2)c2c(N)ncnc21 | 0.676 |
| CC1(C)CCC(c2ccc(Cl)cc2)=C(CN2CCN(c3ccc(C(=O)NS(=O)(=O)c4ccc(N[C@H](CCN5CCOCC5)CSc5ccccc5)c(S(=O)(=O)C(F)(F)F)c4)cc3)CC2)C1 | 1.25 |
| COc1cccc2c1C(=O)c1c(O)c3c(c(O)c1C2=O)C[C@@](O)(C(=O)CO)C[C@@H]3O[C@H]1C[C@H](N)[C@H](O)[C@H](C)O1 | 0.314 |
| CS(=O)(=O)c1ccc(C(=O)Nc2ccc(Cl)c(-c3ccccn3)c2)c(Cl)c1 | 2.82 |
| C=CCn1c(=O)c2cnc(Nc3ccc(N4CCN(C)CC4)cc3)nc2n1-c1cccc(C(C)(C)O)n1 | 0.386 |
